Biological target: T1, φW39 ΔN21 Ref (Bacteriophage phi W39)
T1 chain: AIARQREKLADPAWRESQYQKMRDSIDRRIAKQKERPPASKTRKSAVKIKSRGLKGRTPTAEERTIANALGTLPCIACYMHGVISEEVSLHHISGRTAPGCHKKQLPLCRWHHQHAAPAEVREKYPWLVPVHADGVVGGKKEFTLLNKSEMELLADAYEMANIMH
Experiment: FP; apparent Kd; 119±9; 15 mM Mg acetate, pH 8.5, 25 C
Conditions: tags: expressed from pET21A with NdeI start Met; label: 5'-6FAM
value_type: Kd (µM)
Form entry: value (µM) — number only.

GET /value?item= AJM25 71mer ssDNA (ssDNA) DNA: CAGAAGTAAGTTGGCCGCAGTGTTATCACTCATGGTTATGGCAGCACTGCATAATTCTCTTACTGTCATGC &field=Kd returns 0.119
